test-method-notes: qHTS of pediatric cancer cell lines to identify multiple opportunities for drug repurposing: Primary screen for BT-12 cells (AID 1347101); also: nearly all actives have a fitted effect of over 25% in size
setup-conditions: BT-12 viability, CellTiter-Glo luminescence, 48 h; series mostly up to 57.3 µM
Records with an inconclusive call do not appear. Active and inactive are the calls of the source. Calls follow the shape of the dose curve; as a rule, active = well fitted cell-killing curve with a large enough effect; inconclusive = small, poorly fitted or top-dose-only effect; inactive = flat fitted curve, though single readings scatter.
Outcome field: choose from T for active, F for inactive

Name the outcome recorded for Nc1ccccc1NC(=O)c1ccc(CNc2nccc(-c3cccnc3)n2)cc1 in the assay.
T

Name the outcome recorded for C1=CCOCc2cc(ccc2OCCN2CCCC2)Nc2nccc(n2)-c2cccc(c2)OCC1 in the assay.
T

Name the outcome recorded for CNC(=O)c1ccc(-c2cnc3ncc(Cc4ccc5ncccc5c4)n3n2)cc1F in the assay.
F

Name the outcome recorded for CC(C)c1ccc(Cn2ccc3c4c(N)nc(NC5CC5)nc4ccc32)cc1 in the assay.
T

Name the outcome recorded for O=C(NCCS(=O)(=O)c1ccc(C(F)(F)F)cn1)c1ccc(Cl)cc1 in the assay.
F

Name the outcome recorded for C[C@@H](Oc1cc(-n2cnc3ccc(CN4CCN(C)CC4)cc32)sc1C(N)=O)c1ccccc1C(F)(F)F in the assay.
T

Name the outcome recorded for O=C(c1ccc(Nc2nccc(-c3cc4ccccc4s3)n2)cc1)N1CCC(N2CCCC2)CC1 in the assay.
T

Name the outcome recorded for Nc1nc(-c2nn(Cc3ccccc3F)c3ncccc23)nc(N)c1N1CCOCC1 in the assay.
F

Continuing:
Name the outcome recorded for CC(C)[C@H](C(=O)Nc1ccc(C(=O)NO)cc1)c1ccccc1 in the assay.
T

Name the outcome recorded for CC1COC2(CCN(c3nc(=O)c4cc(C(F)(F)F)cc([N+](=O)[O-])c4s3)CC2)O1 (stereo not given) in the assay.
F

Name the outcome recorded for C=C1C(=CC=C2CCC[C@]3(C)[C@@H]([C@H](C)C=C[C@H](C)C(C)C)CC[C@@H]23)C[C@@H](O)C[C@@H]1O in the assay.
T

* * *

test-method-notes: qHTS of pediatric cancer cell lines to identify multiple opportunities for drug repurposing: Confirmatory screen for U-2 OS cells (AID 1347122); also: nearly all actives have a fitted effect of over 65% in size
setup-conditions: U-2 OS osteosarcoma cell viability; series mostly up to 45.9 µM
Results filed as inconclusive are left out. Active and inactive are the calls of the source. The call rests on the fitted dose curve; in most records, active means well fitted cell-killing curve with a large enough effect; inconclusive means small, poorly fitted or top-dose-only effect; inactive means no such curve, though single readings can be large or run the other way.
Outcome field: choose from Y for active, N for inactive

These solved cases illustrate the format of a correct answer.
Name the outcome recorded for COc1cccc(-c2ccc(NC(=O)C3=C(C(=O)O)CCC3)c(F)c2)c1 in the assay.
Y

Name the outcome recorded for COc1cccc(Nc2c(C(N)=O)cnc3c(C)cc(S(=O)(=O)c4cccc(C(=O)N(C)C)c4)cc23)c1 in the assay.
N

Name the outcome recorded for CC(NCc1ccc2c(c1)nc(NC(=O)c1ccc(-c3cn[nH]c3)s1)n2CC(C)(C)O)C(C)(C)C (configuration not stated) in the assay.
Y

Name the outcome recorded for CC(C)(C)OC(=O)Nc1ccc(-c2cc(C(=O)NCCCCCCC(=O)NO)no2)cc1 in the assay.
Y

Name the outcome recorded for Cc1nc2ccc(CN(C)c3ccc(C(=O)N[C@@H](CCC(=O)O)C(=O)O)s3)cc2c(=O)[nH]1 in the assay.
N

Continuing:
Name the outcome recorded for CC1(C)OC2=C(C(=O)c3ccccc3C2=O)[C@H](NCc2ccccc2)[C@H]1O in the assay.
Y

Name the outcome recorded for CNC(=O)c1nn(C)c2c1C(C)(C)Cc1cnc(Nc3ccc(N4CCN(C)CC4)cc3)nc1-2 in the assay.
Y

Name the outcome recorded for CNC(=O)c1c(F)cccc1Nc1nc(Nc2cc3c(cc2OC)CCN3C(=O)CN(C)C)nc2[nH]ccc12 in the assay.
Y

Name the outcome recorded for COC(=O)[C@]12CCC(C)(C)C[C@@H]1[C@@H]1C(=O)C=C3[C@@]4(C)C=C(C#N)C(=O)C(C)(C)[C@@H]4CC[C@@]3(C)[C@]1(C)CC2 in the assay.
Y

Name the outcome recorded for CC(C)c1cnn2c(NCc3ccccc3)cc(N[C@@H](CO)[C@H](O)CO)nc12 in the assay.
Y

Name the outcome recorded for CC1(C)O[C@@H]2C[C@@H]3[C@H]4C[C@@H](F)C5=CC(=O)C=C[C@]5(C)[C@@]4(F)[C@@H](O)C[C@]3(C)[C@]2(C(=O)CO)O1 in the assay.
Y

Name the outcome recorded for C=CCn1c(=O)c2cnc(Nc3ccc(N4CCN(C)CC4)cc3)nc2n1-c1cccc(C(C)(C)O)n1 in the assay.
Y

Name the outcome recorded for CC(=O)OCC(=O)[C@@]1(O)[C@H](C)C[C@H]2[C@@H]3C=C(C)C4=Cc5c(cnn5-c5ccccc5)C[C@]4(C)[C@@H]3[C@@H](O)C[C@@]21C in the assay.
Y

Name the outcome recorded for O=c1[nH]nc(Sc2ncc([N+](=O)[O-])s2)n1-c1ccc2c(c1)OCCO2 in the assay.
Y

* * *

study-target: Nicotinamide N-methyltransferase (Homo sapiens)
test-method-notes: Confirmatory Screen for Target Class Profiling of Small Molecule Inhibitors of Methyltransferases (AID 1745852)
setup-conditions: MTase-Glo luminescence, SAH detection, recombinant enzyme; measured here: NNMT max response; stronger effect = lower value
Task for the reader: assign each of the following molecules its reported activity.
Answer format reminder: number followed by unit.

Consider the following illustrative entries.
Looking up CN1CCC(CNc2ccc3ncc(-c4cccc(OC(F)(F)F)c4)n3n2)CC1 , I see its activity listed as -51.9%

Looking up O=C(c1ccc(Nc2nccc(-c3cc4ccccc4s3)n2)cc1)N1CCC(N2CCCC2)CC1 , I see its activity listed as -19.2%

Looking up Cc1coc2c1C(=O)C(=O)c1c-2ccc2c1CCCC2(C)C , I see its activity listed as -48.9%

Looking up Cc1nc(Nc2n[nH]c3c2CN(C(=O)N[C@H](CN(C)C)c2ccccc2)C3(C)C)c2sccc2n1 , I see its activity listed as -22.7%

Continuing:
Looking up CC(C)c1cc(-c2n[nH]c(=O)n2-c2ccc3c(ccn3C)c2)c(O)cc1O , I see its activity listed as -33.4%

* * *

test-method-notes: Quantitative High-Throughput drug screen in 47 multiple myeloma cell lines against the NCATS MIPE library collection: KMS28BM_JCRB cell viability assay (AID 1919874); also: nearly all actives have a fitted effect of over 35% in size
setup-conditions: CellTiter-Glo ATP, 48 h; series mostly up to 45.8 µM
Records with an inconclusive call do not appear. Calls of active or inactive are those of the source. Calls follow the shape of the dose curve; as a rule, active = well fitted cell-killing curve with a large enough effect; inconclusive = small, poorly fitted or top-dose-only effect, or effect the other way; inactive = no such curve, though single readings can be large or run the other way.
Outcome field: choose from active, inactive

Name the outcome recorded for COc1ccc(C=Cc2cc(OC)c(OC)c(OC)c2)cc1O in the assay.
inactive

Name the outcome recorded for CNC(=O)c1c(F)cccc1Nc1nc(Nc2cc3c(cc2OC)CCN3C(=O)CN(C)C)nc2[nH]ccc12 in the assay.
active

Name the outcome recorded for Cc1cc(Nc2ncnc3ccc(-c4ccc(CNCCS(C)(=O)=O)o4)cc23)ccc1Oc1ccn2ncnc2c1 in the assay.
active

Continuing:
Name the outcome recorded for O=C(c1cncc(Br)c1)N1CCC(N2CCCC2)CC1 in the assay.
inactive

Name the outcome recorded for C=C1C(=CC=C2CCCC3(C)[C@@H]([C@H](C)C=CC=CC(O)(CC)CC)CC[C@@H]23)C[C@@H](O)C[C@@H]1O (some centres undefined) in the assay.
active

Name the outcome recorded for O=C(Nc1cc(C(F)(F)F)cc(C(F)(F)F)c1)c1cc(Cl)ccc1O in the assay.
active

Name the outcome recorded for Cc1ccc(C(=O)Nc2cccc(C(F)(F)F)c2)cc1-c1ccc2nc(NCCN3CCOCC3)ncc2c1 in the assay.
active

Name the outcome recorded for Cc1ccc(NC(=O)C2(c3ccc4c(c3)OC(F)(F)O4)CC2)nc1-c1cccc(C(=O)O)c1 in the assay.
active

Name the outcome recorded for C[C@@]12O[C@@H](C[C@]1(O)CO)n1c3ccccc3c3c4c(c5c6ccccc6n2c5c31)CNC4=O in the assay.
active

Name the outcome recorded for COc1cc2ncn(-c3cc(OCc4ccccc4C(F)(F)F)c(C(N)=O)s3)c2cc1OC in the assay.
active

Name the outcome recorded for COC(=O)C1=C(C)NC(C)=C(C(=O)OCCN2CCN(C(c3ccccc3)c3ccccc3)CC2)C1c1cccc([N+](=O)[O-])c1 (centres undefined) in the assay.
inactive

Name the outcome recorded for CCCCc1nc2cc(C=CC(=O)NO)ccc2n1CCN(CC)CC in the assay.
active

Name the outcome recorded for N#CCNC(=O)c1ccc(-c2ccnc(Nc3ccc(N4CCOCC4)cc3)n2)cc1 in the assay.
active

Name the outcome recorded for O=C(NC1CCNCC1)c1[nH]ncc1NC(=O)c1c(Cl)cccc1Cl in the assay.
active

Name the outcome recorded for COc1cccc2c(NCc3ccccc3)nc(-n3c(N)nc4ccccc43)nc12 in the assay.
active

Name the outcome recorded for Nc1cccc(-c2cc3c(Oc4cccc(O)c4)ncnc3[nH]2)c1 in the assay.
active

Name the outcome recorded for Cc1nc(Nc2n[nH]c3c2CN(C(=O)N[C@H](CN(C)C)c2ccccc2)C3(C)C)c2sccc2n1 in the assay.
active

Name the outcome recorded for Nc1ccccc1NC(=O)c1ccc(CNC(=O)OCc2cccnc2)cc1 in the assay.
active

Name the outcome recorded for Cc1ccc(C(N)=O)cc1Nc1nccc(-c2cn(C(C)C)c3cnccc23)n1 in the assay.
active
